# measurement-protocol: Combination pharmacokinetics in fed dogs
# stated-conditions: dog, in vivo, the three compounds dosed simultaneously, sampling to 28 days
quantity-kind: AUC (µg·h/mL)
Write the value in µg·h/mL as a bare number.

Reported AUC of CS(=O)(=O)CC(=O)N1CC2(C1)OCc1cc(C3=NO[C@@](c4cc(Cl)c(F)c(Cl)c4)(C(F)(F)F)C3)ccc12 : 206

###

# measurement-protocol: Combination pharmacokinetics in fed dogs
# stated-conditions: dog, in vivo, dosed alone: Compound A 2 mg/kg, moxidectin 0.25 μg/kg, pyrantel pamoate 5 mg/kg, sampling to 28 days
quantity-kind: AUC (µg·h/mL)
Write the value in µg·h/mL as a bare number.

Reported AUC of CS(=O)(=O)CC(=O)N1CC2(C1)OCc1cc(C3=NO[C@@](c4cc(Cl)c(F)c(Cl)c4)(C(F)(F)F)C3)ccc12 : 202
